Would you mind telling me the reported pKd of each entry?
Target: T1, human TL1A (Fitzgerald #30R-AT070) (human, UniProt O95150 72-251, limits assumed)
T1 construct: Coated on the ELISA plate at 1 ug/mL; also called TNFSF15
T1 sequence (looked up): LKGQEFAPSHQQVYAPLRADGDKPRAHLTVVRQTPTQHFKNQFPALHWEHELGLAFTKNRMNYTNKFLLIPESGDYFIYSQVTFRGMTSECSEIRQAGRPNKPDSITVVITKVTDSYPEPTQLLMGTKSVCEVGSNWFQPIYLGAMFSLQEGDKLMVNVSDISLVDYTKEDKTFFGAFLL
Experiment: ELISA titration, coated human TL1A, culture supernatant
One number for each entry, as −log10 of the molar value.

A58 (antibody, human IgG1, V domains shown, human IgG1/kappa (pFuse vectors), culture supernatant) VH: QVQLVQSGAEVKKPGASVKVSCKASGFDIQDTYMHWVKQAPGQGLEWMGRIEPASGHIKYDPKFQGRVTMTRDTSTSTVYMELSSLRSEDTAVYYCARSGGLPDWWGQGTTVTVSS VL: EIVLTQSPGTLSLSPGERATLSCRASSSVSYMYWYQQKPGQAPRLLIYATSNLASGIPDRFSGSGSGTDFTLTISRLEPEDFAVYYCQQWEGNPRTFGGGTKLEIK :: 9.95

// sample A152 (antibody, human IgG1, V domains shown, human IgG1/kappa (pFuse vectors), culture supernatant) VH: QVQLVQSGAEVKKPGASVKVSCKASGFDIQDTYMHWVRQAPGQGLEWMGRIEPASGHIKYDPKFQGRATITTDTSTSTVYMELSSLRSEDTAVYYCARSGGLPDWWGQGTTVTVSS VL: EIVLTQSPGTLSLSPGERATLSCRASSSVSYMYWYQQKPGQAPRPLIYATSNLASGIPDRFSGSGSGTDFTLTISRLEPEDFAVYYCQQWEGNPRTFGGGTKLEIK , its pKd was 10.24
